Measured On: human norepinephrine transporter (NET) (Homo sapiens (Human))
Sequence (P23975 whole entry): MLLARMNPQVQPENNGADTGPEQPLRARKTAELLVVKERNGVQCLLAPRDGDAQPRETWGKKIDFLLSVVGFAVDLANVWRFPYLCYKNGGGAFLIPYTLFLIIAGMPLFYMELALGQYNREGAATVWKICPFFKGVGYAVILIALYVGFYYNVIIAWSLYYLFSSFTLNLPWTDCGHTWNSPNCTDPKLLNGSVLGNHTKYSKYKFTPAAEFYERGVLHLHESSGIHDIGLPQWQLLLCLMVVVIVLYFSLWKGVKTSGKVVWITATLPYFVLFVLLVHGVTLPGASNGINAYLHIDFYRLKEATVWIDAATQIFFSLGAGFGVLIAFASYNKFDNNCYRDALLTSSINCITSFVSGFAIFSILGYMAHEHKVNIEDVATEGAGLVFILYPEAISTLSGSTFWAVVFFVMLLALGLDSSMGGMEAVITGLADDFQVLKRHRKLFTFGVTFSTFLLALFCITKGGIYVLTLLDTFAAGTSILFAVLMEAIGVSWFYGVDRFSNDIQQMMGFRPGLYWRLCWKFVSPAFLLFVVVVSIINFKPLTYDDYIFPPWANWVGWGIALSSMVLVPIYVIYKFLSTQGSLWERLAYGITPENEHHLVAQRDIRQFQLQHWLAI
Protocol Description: Scintillation Proximity Assay (SPA) competition binding, human NET
Measurement Setup: recombinant hNET-CHO membranes, [3H]nisoxetine
# Lookup of reported pIC50 NET keyed by entry
Give only the figure.

Record OC1CNCCC12CCN(c1nc(Oc3cccc(F)c3)cc(C(F)(F)F)n1)C2 (stereo not drawn) [Example 97] : what is its pIC50 NET with human norepinephrine transporter (NET) (Homo sapiens (Human))?
6.62

For Fc1cccc(Oc2cc(F)c(F)c(N3CCC4(CC3)CNCCO4)c2)c1 [Example 13] then?
6.74

For Cl.Fc1ccccc1Oc1cc(C(F)(F)F)nc(N2CCC3(CC2)CNCCO3)n1 [Example 57] then?
5.94
